molecular target: UniProt Q13547; assay: SAMDI mass spectrometry HDAC inhibition assay; type: biochemical; details: at 10 μM, given if the IC50 was above 10 μM
Sequence (Q13547 whole entry): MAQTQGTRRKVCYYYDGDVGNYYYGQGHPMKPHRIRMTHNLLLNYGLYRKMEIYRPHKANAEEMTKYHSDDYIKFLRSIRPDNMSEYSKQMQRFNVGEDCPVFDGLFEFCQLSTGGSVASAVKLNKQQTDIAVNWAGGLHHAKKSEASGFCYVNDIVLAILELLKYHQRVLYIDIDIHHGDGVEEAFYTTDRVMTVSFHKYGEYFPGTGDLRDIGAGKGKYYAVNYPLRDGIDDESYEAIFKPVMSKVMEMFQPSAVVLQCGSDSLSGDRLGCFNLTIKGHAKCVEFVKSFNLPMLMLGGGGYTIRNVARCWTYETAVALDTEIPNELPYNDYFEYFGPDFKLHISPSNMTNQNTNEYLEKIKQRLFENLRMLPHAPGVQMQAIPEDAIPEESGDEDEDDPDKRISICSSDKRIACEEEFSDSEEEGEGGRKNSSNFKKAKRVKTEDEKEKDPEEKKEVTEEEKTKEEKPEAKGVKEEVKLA
This section presents molecules with their documented inhibition at 10 µM values.
Numeric only. Scale: %

molecule | system_name | inhibition at 10 µM (%)
Oc1cccn(CCCn2cc(-c3ccccc3)nn2)c1=S [Compound 162b] | UniProt Q13547 | 27
Oc1cccn(CCCCCCn2cc(-c3ccccc3)nn2)c1=S [Compound 162e] | UniProt Q13547 | 23

Now for a further molecule.
[in] Bench note: what inhibition at 10 µM did N#Cc1ccc(-c2cn(CCCCCn3cccc(O)c3=S)nn2)cc1C(F)(F)F [Compound 167g] show?
[out] 55
